target: GlcNAc(b1-2)[GlcNAc(b1-6)]Man(a1-6)[GlcNAc(b1-2)Man(a1-3)]Man(b1-4)GlcNAc(b1-4)[Fuc(a1-6)]GlcNAc; test: glycan array binding signal (z-score within array); higher = stronger binding; conditions: glycan notation: IUPAC condensed, linker removed
Only a selection was taken, and the strongest signals are over-represented in it overall.

>  <BINDER>
PpFlo1 (Pichia pastoris) (protein) MGSSHHHHHHSSGLVPRGSHMQESGDGDISDSAYACDIDATRYDGFNATIYEFQPGDGRLTRDPVFMSTGYLNRTQLHSITGVTDPGFSIYTPGVPTTTLYGIPNVNWENLLLELKGYFRAEVSGDYGLSLRNIDDSAILFFGKETAFQCCNENSISNEASTDYSLFTIFRQEGDETTNLDSFTYTQYLEAGKYYPVRTFFVNIERHAVFNFTMTLPDGTELTDFHNYIYQFGALDEEQCQA

>  <glycan array binding signal (z-score)>
0.03

$$$$
